The measured values listed here are drawn from ChEMBL document CHEMBL5291721.

# target of assay: Muscarinic acetylcholine receptor M2 (Homo sapiens); note: assay procedure not described here
# Sequence (P08172 whole entry): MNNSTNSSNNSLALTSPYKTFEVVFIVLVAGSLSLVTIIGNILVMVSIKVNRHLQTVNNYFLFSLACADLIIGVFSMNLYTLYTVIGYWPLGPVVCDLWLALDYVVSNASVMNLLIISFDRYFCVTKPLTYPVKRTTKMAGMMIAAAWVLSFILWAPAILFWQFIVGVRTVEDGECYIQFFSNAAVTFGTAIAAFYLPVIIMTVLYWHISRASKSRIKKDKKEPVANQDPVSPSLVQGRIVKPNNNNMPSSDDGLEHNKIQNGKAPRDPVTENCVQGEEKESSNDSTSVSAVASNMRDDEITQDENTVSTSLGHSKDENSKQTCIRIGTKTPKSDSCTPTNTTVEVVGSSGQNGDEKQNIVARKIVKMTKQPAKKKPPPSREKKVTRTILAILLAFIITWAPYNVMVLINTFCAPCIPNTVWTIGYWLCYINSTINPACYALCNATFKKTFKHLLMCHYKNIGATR
# Assay type: functional, cell-based
result type: AC50

| compound | AC50 |
| --- | --- |
| CC(=O)OCC(=O)[C@@]1(O)CC[C@H]2[C@@H]3CCC4=CC(=O)CC[C@]4(C)[C@@]3(F)[C@@H](O)C[C@@]21C [FLUDROCORTISONE ACETATE] | > 30 µM |

[ask] Return reported AC50; argument: CC(C)C[C@H](NC(=O)[C@H](Cc1ccccc1)NC(=O)c1cnccn1)B(O)O [BORTEZOMIB]
[reply] > 30 µM

[ask] Request: CN1CC2c3ccccc3Oc3ccc(Cl)cc3C2C1 (centres undefined) [ASENAPINE]
[reply] > 30 µM
